Values from patent US12060433B2

# maps each entry to its kd
- target system: T1, human CD73 (SEQ ID NO: 70) (Homo sapiens, UniProt P21589)
- T1 construct: purchased BPS Bioscience
- T1 sequence (P21589 27-549): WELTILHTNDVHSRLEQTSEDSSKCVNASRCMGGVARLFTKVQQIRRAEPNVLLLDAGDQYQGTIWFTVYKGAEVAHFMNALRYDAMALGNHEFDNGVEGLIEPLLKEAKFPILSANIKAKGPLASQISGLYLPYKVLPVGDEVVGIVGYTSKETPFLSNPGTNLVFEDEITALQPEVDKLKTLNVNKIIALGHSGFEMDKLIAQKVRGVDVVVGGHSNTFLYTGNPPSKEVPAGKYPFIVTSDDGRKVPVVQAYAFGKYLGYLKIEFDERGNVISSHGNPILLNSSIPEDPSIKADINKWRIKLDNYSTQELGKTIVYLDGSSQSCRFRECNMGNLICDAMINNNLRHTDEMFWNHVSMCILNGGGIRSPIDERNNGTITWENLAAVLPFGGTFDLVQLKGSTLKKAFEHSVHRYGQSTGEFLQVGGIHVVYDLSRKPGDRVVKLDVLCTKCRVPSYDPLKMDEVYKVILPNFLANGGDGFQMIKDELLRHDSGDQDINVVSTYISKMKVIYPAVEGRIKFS
- test details: SPR (Biacore 8K) binding affinity and kinetics to human CD73
- run conditions: human CD73, open conformation, 25° C.
Give the value, in units of s⁻¹, as a plain number.

CL25_hu_9-4: humanized CL25 antibody, VH and VL in FIG. 1C (antibody, V domains shown) VH: QVQLVQSGAEVKKPGSSVKVSCKASGYTFTSYGLSWVRQAPGQGLEWMGEIYPGSGNTYYNEKFKGRVTITADESTSTAYMELSSLRSEDTAVYYCARYDYLGSSYGFDYWGAGTTVTVSS VL: DIQMTQSPSSLSASVGDRVTITCKASQDVSTAVAWYQQKPGKAPKLLLYSASYRYSGVPSRFSGSGSGTDYTLTISSLQPEDFATYYCQQHYNTPYTFGGGTKLEIK
0.00264
CL25_hu_9-5: humanized CL25 antibody, VH and VL in FIG. 1C (antibody, V domains shown) VH: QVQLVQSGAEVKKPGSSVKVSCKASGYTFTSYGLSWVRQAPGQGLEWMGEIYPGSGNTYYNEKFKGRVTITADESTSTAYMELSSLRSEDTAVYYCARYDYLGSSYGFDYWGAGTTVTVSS VL: DIVMTQSPDSLAVSLGERATINCKASQDVSTAVAWYQQKPGQPPKLLIYSASYRYSGVPDRFSGSGSGTDFTLTISSLQAEDVAVYYCQQHYNTPYTFGGGTKLEIK
0.00114
CL25_hu_11-5: humanized CL25 antibody, VH and VL in FIG. 1B (antibody, V domains shown) VH: QVQLVQSGAEVKKPGASVKVSCKASGYTFTSYGLSWVRQATGQGLEWMGEIYPGSGNTYYNEKFKGRVTMTANTSISTAYMELSSLRSEDTAVYYCARYDYLGSSYGFDYWGAGTTVTVSS VL: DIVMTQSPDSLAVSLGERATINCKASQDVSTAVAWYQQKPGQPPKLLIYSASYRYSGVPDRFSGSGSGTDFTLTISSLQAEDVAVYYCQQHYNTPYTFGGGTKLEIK
0.00117
CL25_hu_11-4: humanized CL25 antibody, VH and VL in FIG. 1A (antibody, V domains shown) VH: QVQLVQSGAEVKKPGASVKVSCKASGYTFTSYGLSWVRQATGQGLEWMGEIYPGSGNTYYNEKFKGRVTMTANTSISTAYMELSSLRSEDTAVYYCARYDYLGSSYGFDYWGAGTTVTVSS VL: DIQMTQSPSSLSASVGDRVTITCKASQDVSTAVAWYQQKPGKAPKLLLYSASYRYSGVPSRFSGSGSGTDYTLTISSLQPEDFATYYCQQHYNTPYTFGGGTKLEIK
0.00155

Field: next molecule
I am curious: what kd value has been reported for CL25_hu_9-6: humanized CL25 antibody, VH and VL in FIG. 1C (antibody, V domains shown) VH: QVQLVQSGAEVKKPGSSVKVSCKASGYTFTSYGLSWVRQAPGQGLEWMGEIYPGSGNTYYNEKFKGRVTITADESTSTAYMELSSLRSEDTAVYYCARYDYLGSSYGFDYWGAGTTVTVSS VL: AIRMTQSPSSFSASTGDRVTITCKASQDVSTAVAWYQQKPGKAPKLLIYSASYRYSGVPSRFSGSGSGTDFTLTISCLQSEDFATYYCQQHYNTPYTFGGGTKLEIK ? 0.000953
